The measured values listed here are drawn from ChEMBL document CHEMBL1128446.

Test system: Mycobacterium avium
ASSAY METHOD TEXT: Minimum Inhibitory Concentration against clinical isolates of Mycobacterium avium complex ATCC 49601
Format: functional
MEASURED PROPERTY: log10 MIC (log10 of the value in µg/mL)
Recorded MIC (log10, µg/mL)

// solved cases for log10 MIC follow
O=C(Oc1c(Br)cc(Br)cc1Br)c1cnccn1; 2.11
CCCCCC(CC)OC(=O)c1cnc(C)cn1 (centres undefined); 1.81
CCCCCCC(C)OC(=O)c1cnc(Cl)cn1 (centres undefined); 1.20
CCCCCCCCCCOC(=O)c1cnccn1; 0.90
CCCCCCOC(=O)c1cnc(Cl)cn1; 1.20

Just so you know, measured log10 MIC for `CCCOC(=O)c1cnc(Cl)cn1` came out at 1.20

Just so you know, measured log10 MIC for `O=C(OCc1ccc(Br)cc1)c1cnc(Cl)cn1` came out at 1.81

Just so you know, measured log10 MIC for CCCCCC(C)OC(=O)c1cnc(Cl)cn1 (centres undefined) came out at 1.51

Just so you know, measured log10 MIC for `CCCCCCCCCCOC(=O)c1cnc(Cl)cn1` came out at 1.20

Just so you know, measured log10 MIC for CC(C)(C)C(OC(=O)c1cnc(Cl)cn1)c1ccccc1 (centres undefined) came out at 2.41

Just so you know, measured log10 MIC for `C=CCOC(=O)c1cnc(Cl)cn1` came out at 1.81

Just so you know, measured log10 MIC for CC(OC(=O)c1cnc(Cl)cn1)c1ccc(Br)cc1 (centres undefined) came out at 1.20
